- ASSAY_TARGET: cholesterol ester hydrolase (CEH) / cholesterol esterase (EC 3.1.1.13) (Bos taurus, UniProt P30122)
- Sequence (P30122 19-597): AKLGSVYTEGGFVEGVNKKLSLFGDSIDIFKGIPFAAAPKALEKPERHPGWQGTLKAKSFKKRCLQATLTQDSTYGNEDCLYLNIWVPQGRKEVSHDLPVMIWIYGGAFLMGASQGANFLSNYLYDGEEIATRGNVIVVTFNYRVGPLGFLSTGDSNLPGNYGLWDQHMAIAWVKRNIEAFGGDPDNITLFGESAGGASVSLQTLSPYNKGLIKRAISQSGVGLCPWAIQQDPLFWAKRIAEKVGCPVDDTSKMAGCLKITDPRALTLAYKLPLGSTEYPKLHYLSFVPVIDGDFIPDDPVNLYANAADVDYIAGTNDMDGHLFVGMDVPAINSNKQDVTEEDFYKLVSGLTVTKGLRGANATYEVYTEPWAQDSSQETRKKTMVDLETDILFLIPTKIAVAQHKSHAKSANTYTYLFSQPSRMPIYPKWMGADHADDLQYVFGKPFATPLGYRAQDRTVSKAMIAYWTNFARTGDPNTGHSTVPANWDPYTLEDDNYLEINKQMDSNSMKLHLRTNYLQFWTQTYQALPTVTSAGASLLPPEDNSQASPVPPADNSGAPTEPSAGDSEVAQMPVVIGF
- RUN_DESCRIPTION: In vitro inhibition of cholesteryl ester formation by cholesterol esterase (CEH)
Criterion: IC50 strictly under 20 µM. Met: 1. Not met: 0.

Request: Here's an entry: CCNC(=O)Oc1ccc2oc3ccccc3c2c1 . Is its IC50 below 20 µM?
Response: 1

Request: What do you have for CCCCCCNC(=O)Oc1ccc2oc3ccccc3c2c1 ?
Response: 1

Request: What do you have for O=C(NCC1CCCCC1)Oc1ccc2oc3ccccc3c2c1 ?
Response: 1

Request: What do you have for CNC(=O)Oc1ccc2oc3ccccc3c2c1 ?
Response: 0

Request: What do you have for CC(C)CCCC(C)NC(=O)Oc1ccc2oc3ccccc3c2c1 (stereo not shown) ?
Response: 1

Request: What do you have for O=C(NCCCCc1ccccc1)Oc1ccc2oc3ccccc3c2c1 ?
Response: 0

Request: What do you have for CCCCNC(=O)Oc1ccc2oc3ccccc3c2c1 ?
Response: 0
